// values below are reported Emax
# Tested on: excised wheat leaf tips
# assay.notes: Senescence inhibition on winter wheat leaf segments (chlorophyll retention)
# Design: species or system Triticum aestivum cv. Hereward
# experimental.context: Triticum aestivum, foliar; retention of chlorophyll in excised wheat leaf tips, 96 h in the dark, at concentration with highest activity; read-out: Activity (%) [10^-4mol.l^-1 KTHP = 100%]

compound | Emax [%]
Oc1ccc(CNc2nc(F)nc3c2ncn3C2CCCCO2)cc1 (centres unmarked) [Compound 66] | 74
Fc1nc(NCc2ccco2)c2ncn(C3CCCCO3)c2n1 (centres unmarked) [Compound 57] | 111
COc1cccc(CNc2nc(F)nc3c2ncn3C2CCCCO2)c1 (centres unmarked) [Compound 67] | 195
Oc1cccc(CNc2nc(F)nc3c2ncn3C2CCCO2)c1 (centres unmarked) [Compound 15] | 133
COc1ccccc1CNc1nc(F)nc2c1ncn2C1CCCO1 (centres unmarked) [Compound 17] | 104
Oc1ccc(CNc2nc(F)nc3c2ncn3C2CCCO2)cc1 (centres unmarked) [Compound 16] | 110
COc1cc(CNc2nc(F)nc3c2ncn3C2CCCO2)ccc1O (centres unmarked) [Compound 43] | 55
Cc1ccc(CNc2nc(F)nc3c2ncn3C2CCCCO2)o1 (centres unmarked) [Compound 60] | 123
